- test system: T1, hOrai1-mOrai1 ECL2 (…) protein (human/mouse chimera, UniProt Q96D31 1-301)
- T1 construct: also called Ch
- T1 sequence (Q96D31 other isoform, or with tags, fused parts or gaps): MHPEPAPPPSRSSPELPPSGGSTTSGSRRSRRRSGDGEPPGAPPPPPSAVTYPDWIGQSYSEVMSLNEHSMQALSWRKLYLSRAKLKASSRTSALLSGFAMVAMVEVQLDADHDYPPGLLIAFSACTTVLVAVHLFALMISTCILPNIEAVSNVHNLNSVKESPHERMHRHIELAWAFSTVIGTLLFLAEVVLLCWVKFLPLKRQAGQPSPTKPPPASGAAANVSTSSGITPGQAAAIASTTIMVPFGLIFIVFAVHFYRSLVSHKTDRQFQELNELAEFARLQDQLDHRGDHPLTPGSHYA
- experiment: FACS, 293EBNA
- Set-up: concentration or dose not given beside the values
measured endpoint: percent of control (POC) of FACS Geo Mean

INSERT INTO measurements (binder, val) VALUES
  ('mAb 5B1.1 (antibody, human IgG2, lambda, V domains shown, fully human IgG2 lambda, Campaign 2; also called mAb 5Bl1.1) VH: QVQLVQSGAEVKKPGASVKVSCKASGYTFTDYYINWVRQAPGQGLEWMGWINPNSGGSSYAQKFQGRVTMTRDTSISTAHMELIRLRSDDTAVYYCARERGGIEDWFDPWGQGTLVTVSS VL: QSVLTQPPSVSGAPGQRVTISCTGSSSNIGAGYDVHWYQQLPGTAPKLLIYGNSNRPSGVPDRFSGSKSGTSASLAITKFQAEDEAVYYCQSYGSGLSGVVFGGGTKLTVLG', '< 1%'),
  ('mAb 5C1.1 (antibody, human IgG2, lambda, V domains shown, fully human IgG2 lambda, Campaign 2) VH: QVQLVQSGAEVKKPGASVKVSCKASGYTFTDYYMNWVRQAPGQGLEWMGWINPNSGGTKYAQKFQGRVTMTRDTSIRTAYMELSRLRSDDTAVYYCAREYGGNSDWFDPWGQGTLVTVSS VL: QSVLTQPPSVSGAPGQRVTISCTGSSSNIGAGYDVHWYQQLPGTAPKLLIYGNSNRPSGVPDRFSGSKSGTSASLAITGLQAEDEADYYCQSYDNRLSDSVVIGGGTKLAVQG', '< 1%'),
  ('mAb 5B5.2 (antibody, human IgG2, lambda, V domains shown, fully human IgG2 lambda, Campaign 2; same chains as 5B5.1) VH: QVQLVQSGAEVKKPGASVKVSCKASGYTFTDYYINWVRQAPGQGLEWMGWINPNSGGTDYAQKFQGRVTMTRDTSIRTAYMELNRLTSDDTAVYYCAREYGGYEDWFDPWGQGTLVTVSS VL: QSVLTQPPSVSGAPGQRVTISCTGSNSNIGAGFDVHWYQQLPGTVPKLLIYGNNNRPSGVPDRFSGSKSGTSASLAITGLQAEDEADYYCQSYDSRLTVFGGGTKLTVLG', '< 1%');
